src = patent US9439876B2

System: Candida albicans wild type strain SN250
Test: Screen for inhibition of Candida albicans lawn formation (halo) on solid serum (FBS agar) plates
Assay type: cell-based
Measurement conditions: 5 μl of 10 mM drug on fungal lawn, 25° C. and 37° C.
Parameter: inhibition of C. albicans growth (halo formation) on serum plates

Compound	Result
CC(C)n1c(/C=C/C(O)CC(O)CC(=O)O)c(-c2ccc(F)cc2)c2ccccc21 (stereo not shown)	failed to inhibit
O=[N+]([O-])c1ccc(/C=N/O)o1	weaker inhibition
CCCCCCCC(=O)O	weaker inhibition
OC(Cn1cncn1)(Cn1cncn1)c1ccc(F)cc1F	weak inhibition
Clc1ccccc1C(c1ccccc1)(c1ccccc1)n1ccnc1	weak inhibition
COc1c(C)c2c(c(O)c1C/C=C(\C)CCC(=O)O)C(=O)OC2	failed to inhibit
[O-][n+]1ccccc1[S-].[O-][n+]1ccccc1[S-].[Zn+2]	weak inhibition
O=[N+]([O-])c1ccc(O)c2ncccc12	weaker inhibition

Now let's try a different one.
Query block: Which measured inhibition of C. albicans growth (halo formation) on serum plates belongs to Clc1ccc(COC(Cn2ccnc2)c2ccc(Cl)cc2Cl)c(Cl)c1 (stereo not shown) , tested on Candida albicans wild type strain SN250?
Result block: weak inhibition
